Test system: MS2 coat protein
Measurement description: apparent KD of MS2 coat protein; higher = weaker reporter binding
Study conditions: Eterna round: R107; input ligand: theophylline 20 uM
Quantity kind: apparent KD of MS2 coat protein (nM)
All answers are understood in nM, so give the number only.

Suppose we examine the sequence UAAAACAUGAGGAUCACCCAUGUAAUUGAUACCAGAGUGAUGAUCCUCCCUUGGCAGCAAAUAACGCAUUGAUUACAAUGCGAAA [Mat - Same State Theophlline A - Mod of Eli - D27] ; what apparent KD of MS2 coat protein value has been reported?
105

Need apparent KD of MS2 coat protein, item AUACAUGAGGAUCACCCAUGUAUAGUUGAAGGAGCGACCAGAGGGUCAGGUAGGUCGCAGCGCAUGAGGUAAGCCCAUGUAUGCU [#1 Exclusion - Arginine A Attempt #16 (Inspired by Pi)]
44

Please report the recorded apparent KD of MS2 coat protein for AUACAUGAGGAUCACCCAUGUUAUAGUGAAGGAGCGACAUUUAGGUCAGGUAGGUCGCACUAUUGAAUUAUUAUUCUCAGUUCUU [JR_ExcArginiA_Sub019] .
21.8

Can you look up the measured apparent KD of MS2 coat protein of AGCCACUCGAGUGAUCCUCACGAGUGGCUACGAGGACCGGUACGGCCGCCACUCGAAUUAACAUGAGGAUCACCCAUGUAAUCAU [Brourdmod04] for me?
259

Find the recorded apparent KD of MS2 coat protein belonging to UUUUACGCAAGUAAUUCCCGGGAACCGGAUACCAGCUCCUCCAACAGCCCUUGGCAGCCGACCACAUGAGGAUCACCCAUGUUUC [theeternabot_exclusion_MS2_Theo_A_28] and report it.
16.1

Would you kindly share the measured apparent KD of MS2 coat protein for CUCGAGUUAUGAGAUACCAGACUAUAGUUUACAUGAGGAUCACCCAUGUUAUGGGUGGUAGUCCCUUGGCAGCUCAUAUGUUUAA [#06 Exclusion-TheophyllineB] ?
274

Further cases:
May I ask what apparent KD of MS2 coat protein has been recorded for GAGCUGAUGUAGAGCGAAUAUUCGAGAGAUACCAGUACAGAAAUGUACCCUUGGCAGCUCAACUUUACAUGAGGAUCACCCAUGU [Ex Theophylline A 23] ?
15.6

---

System: MS2 coat protein
Measurement description: apparent KD of MS2 coat protein, switch OFF state (with FMN for OFF switches, without FMN for ON switches); designed switch direction (-1 OFF switch, 1 ON switch): 1; higher = weaker reporter binding
Study conditions: FMN input: 0 or 200 uM; Eterna round: R93 (includes R88 designs)
The class of a record is decided solely by its measured apparent KD of MS2 coat protein; consult band 1: < 30 nM; band 2: ≥ 30 nM and < 100 nM; band 3: ≥ 100 nM

Known results for sequences:
Sort into band: AACAAUCUAUCUGAGGAUAUCAUGUCAAAGACAUGAGGAUCACCCAUGUACCAGGAAACUGGUUAUGAGAAGGCAGAUAGAUUGA [SS2: 1115]
band 3

Band of AAUAAACAUGAGGAUCACCCAUGUCUUUUACAUCAAGGAUAUGGGAUCGGAAAUCCGACACCAGAAGGUGAGUAGA [Userra] ?
band 3

Looking at AAUAAUUAUAUGGAGGAUAUCCGUAAUAAGACAUGAGGAUCACCCAUGUAAUAAGGGUAAAUAAAGGAGAAGGCCAAGGGUGAAA [JR_SS002_Sub003] , which class would you pick?
band 3

Category of GUAGACAUAGUUCAGGAUAUAUGAAUAGUCACAUGAGGAUCACCCAUGUGCAUUUAUAUGCGCACAUAGAAGGGAGGUAGUUAAC [Mat - Same state - Malcolm Mod - D122] , please.
band 1

Which category does the recorded apparent KD of MS2 coat protein put GGGAGACAUGAGGAUCACCCAUGUGAGAAGAGGCGAGGAUAUCGAAAAAAAAAAAAAAAACGAGAAGGCGCGAGAU [salish99-SS1-004] in?
band 3

# classify by apparent KD of MS2 coat protein band: AGGAGACAUGAGGAUCACCCAUGUGAGAAGAGGCGAGGAUAUCGAAAGAAAGAAGAGAAACGAGAAGGCGCGAGCC [salish99-SS1-032]
band 1

Band assignment needed for ACCCGACAUGAGGAUCACCCAUGUAAACAAUCAUGAGGAUAUCCGGAGCAAAUGCUCAAGGGAGAAGGCAUAAAAG [Onrequus] please.
band 3

Place this sequence in its band: AAAGACAUGGUGCAGGAUAUAUUAAUAGUCACAUGAGGAUCACCCAUGUUCAUUUAUAUGAACGAGUAGAAGGGCGAUGAAAAAA [SameState2 Malc#7]
band 2

Into which bin does this sequence go? AACAAUCUAUCUGAGGAUAUGUGUCGAAAGACAUGAGGAUCACCCAUGUCAAAACAUGGAAAGAUACAGAAGGCAGAUAGAUUGA [SS2: 1158]
band 1

Consider AAAAAACAUGAGGAUCACCCAUGUCGAAAGACGUGAGGAUAUGUACAGACUUCGGUCUGUACAGAAGGCACGUAAA [SS1 - 1040] . To which apparent KD of MS2 coat protein class does it belong?
band 2

More entries:
Where would GAAAAACAUGAGGAUCACCCAUGUAGAAAUAUGGGAGGAUAUACAAAGACGGAAGUCAAAGUAGAAGGCCUAAAAG [Mat - Same State 1 - Eli mod - D7] land among the classes by reported apparent KD of MS2 coat protein?
band 2

Please indicate the class for AAUAAACAUGAGGAUCACCCAUGUACCGACCACUAAGGAUAUGGGCGAAUAACAGCUCGGCCAGAAGGUAGAGGUG [Gebimarabi] based on its apparent KD of MS2 coat protein.
band 2

# bin label for AACAAUCUAUCUGAGGAUAUCAUUUCAAAGACAUGAGGAUCACCCAUGUGCAGGAAAACUGCAAAUGAGAAGGCAGAUAGAUUGA [SS2: 1107]
band 1
